Data origin: ChEMBL document CHEMBL1961873

Kindly supply the reported inhibition values for the records listed here.
# tested system: Tyrosine-protein kinase JAK1 (Homo sapiens) (UniProt P23458);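 also: each value is a mean inhibition of JAK1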
# Sequence (P23458 whole entry): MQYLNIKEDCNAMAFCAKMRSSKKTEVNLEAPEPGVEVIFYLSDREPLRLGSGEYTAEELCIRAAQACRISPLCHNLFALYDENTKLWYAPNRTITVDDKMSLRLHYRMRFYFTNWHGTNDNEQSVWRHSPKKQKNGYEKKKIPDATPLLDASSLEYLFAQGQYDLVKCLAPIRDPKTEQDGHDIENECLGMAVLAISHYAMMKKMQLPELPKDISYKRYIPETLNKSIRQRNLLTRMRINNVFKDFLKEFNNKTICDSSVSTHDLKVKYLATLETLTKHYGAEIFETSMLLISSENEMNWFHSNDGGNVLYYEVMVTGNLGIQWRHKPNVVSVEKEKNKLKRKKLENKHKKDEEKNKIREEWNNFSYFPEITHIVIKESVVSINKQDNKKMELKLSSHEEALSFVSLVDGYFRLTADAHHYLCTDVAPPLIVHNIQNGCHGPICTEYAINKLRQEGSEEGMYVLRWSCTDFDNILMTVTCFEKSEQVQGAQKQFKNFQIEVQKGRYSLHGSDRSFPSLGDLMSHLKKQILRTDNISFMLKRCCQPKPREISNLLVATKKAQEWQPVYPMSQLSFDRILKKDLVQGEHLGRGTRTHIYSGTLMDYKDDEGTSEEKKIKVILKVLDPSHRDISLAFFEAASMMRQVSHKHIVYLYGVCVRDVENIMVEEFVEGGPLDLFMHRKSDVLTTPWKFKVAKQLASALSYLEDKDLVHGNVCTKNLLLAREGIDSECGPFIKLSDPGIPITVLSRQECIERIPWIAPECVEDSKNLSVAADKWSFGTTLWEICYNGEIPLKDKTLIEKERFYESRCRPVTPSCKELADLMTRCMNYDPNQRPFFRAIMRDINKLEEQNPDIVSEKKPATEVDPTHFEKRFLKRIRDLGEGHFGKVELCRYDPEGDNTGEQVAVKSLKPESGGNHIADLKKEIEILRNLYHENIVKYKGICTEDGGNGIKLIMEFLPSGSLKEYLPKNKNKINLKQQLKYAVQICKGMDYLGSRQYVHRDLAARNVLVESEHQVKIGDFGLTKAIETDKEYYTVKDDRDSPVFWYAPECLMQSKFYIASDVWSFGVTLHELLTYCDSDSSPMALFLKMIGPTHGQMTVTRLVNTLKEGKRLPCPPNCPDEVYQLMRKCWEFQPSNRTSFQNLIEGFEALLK
# assay context: at 1 µM
The answer is to be given in %; state only the numeric part.

# compound COc1cc(C)c(N(C)C(=O)CN(C)C)cc1Nc1nc(Nc2cccc(F)c2C(N)=O)c2cc[nH]c2n1 ; its inhibition = -5.28

According to the records, this compound Fc1ccc(-c2c(-c3ccncc3)nc3n2CCS3)cc1 displays inhibition of 10.2

Sure, the documented inhibition for C/C(Nc1ccc(S(N)(=O)=O)cc1)=C1/C(=O)Nc2ccccc21 is -1.09

Briefly, inhibition measured for Cc1ccc(C(=O)NC2CCC2)cc1-c1ccc(C(=O)NCC2CC2)cc1 : 0.59

The compound listed as O=C(Nc1n[nH]c2nc(-c3ccco3)ccc12)C1CC1 has a reported inhibition of -0.27

# compound N#Cc1ccc(Oc2nccc(-c3c(-c4ccc(F)cc4)ncn3C3CCNCC3)n2)cc1 ; its inhibition = 3.3

Measured inhibition of Cc1ccc(NC(=O)c2ccoc2)cc1-c1ccc(C(=O)NCC2CC2)cc1 : 2.95

According to the records, this compound COc1cc2ncn(-c3cc(OCc4ccccc4C(F)(F)F)c(C(C)=O)s3)c2cc1OC displays inhibition of 2.47

GET /value?item= C#Cc1cccc(Nc2ncnc3ccc(OCCCCNCCS(C)(=O)=O)cc23)c1 &field=inhibition returns 13.4

# compound NS(=O)(=O)c1ccc(N/N=C2\C(=O)Nc3ccc(-c4cnco4)cc32)cc1 ; its inhibition = 6.12

The compound identified as NCc1ccc(-n2c(-c3nonc3N)nc3cnccc32)cc1 registered its inhibition at 5.42

Sample CCS(=O)(=O)c1ccc(OC)c(Nc2ncc(-c3cccc(-c4ccccc4F)c3)o2)c1 ; inhibition observed: 1.93

Summary for this compound, O=C1Nc2ccccc2/C1=C/Nc1ccc(-n2cncn2)cc1 : inhibition is 29.9

----------
# tested system: Muscle, skeletal receptor tyrosine-protein kinase (Homo sapiens);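 also: reported value is the mean percent inhibition of MuSK kinase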
# assay context: at 1 µM
Record form. Attribute: inhibition. Fill in for each entry.
API: value field is a number in %; no unit string.

Query FC(F)(F)c1cccc(Nc2nccc(-c3cnn4nc(-c5ccccc5)ccc34)n2)c1 yields inhibition of 0.42

Measured inhibition, COc1ccc(C2=C(N3CCc4ccccc43)C(=O)NC2=O)cc1 : 6.74

Looking up O=C1NC(=O)C(c2cccc(Cl)c2)=C1Nc1ccc(Cl)c(C(=O)O)c1 , I found its inhibition recorded as 3.32

Recorded result, Fc1ccc(-c2c(-c3ccncc3)nc3n2CCS3)cc1 , inhibition: 1.19

For this molecule ( COc1cc(N2CCN(C(C)C)CC2)ccc1Nc1nc(Nc2ccc(F)cc2C(=O)NC[C@@H](O)CO)c2cc[nH]c2n1 ), measured inhibition is 3.79

// inhibition value for C/C(Nc1ccc(S(N)(=O)=O)cc1)=C1/C(=O)Nc2ccccc21 : 30.9

inhibition for CN(C)c1ccc2c(c1)/C(=C/Nc1ccc(S(N)(=O)=O)cc1)C(=O)N2 is 46.8

Kindly note the recorded inhibition for CCc1cccc(CC)c1/C=C/c1cncc(C(=O)NC)c1 , which is 0.76

Briefly, inhibition measured for Cc1ccc(NC(=O)c2ccoc2)cc1-c1ccc(C(=O)NCC2CC2)cc1 : 1.19

inhibition measured on Cc1nnc(-c2ccc(C)c(-c3ccc(C(=O)NCc4ccc(Cl)cc4)cc3)c2)o1 = 0.1

get_value(item= O=C(Nc1n[nH]c2nc(-c3ccc(O)cc3)c(Br)cc12)C1CC1 , readout=inhibition) returns 14

Notebook: COc1ccc2ncn(-c3cc(O[C@H](C)c4ccccc4Cl)c(C(N)=O)s3)c2c1 , inhibition read as 15

So for Cc1ccc(C(=O)NC2CCC2)cc1-c1ccc(C(=O)NCC2CC2)cc1 , the logged inhibition turned out to be 3.12

For record CN(C)CCOc1ccc(-c2cc(-c3ccc4c(c3)CCC4=NO)c(-c3ccncc3)o2)cc1 the listed inhibition is -1

molecule c1ccc(Oc2ccc(Nc3ncc(-c4ccccc4)o3)cc2)cc1 , inhibition observed: 2.81

Value of measured inhibition for the entry Fc1ccc(-c2nc3n(c2-c2ccncc2)CCS3)cc1 : 2.27

Consider Clc1ccc(CNc2nccc(-c3cnn4ncccc34)n2)cc1 . Its measured inhibition is 3.54

What the record says about COc1cccc(/C=N/Nc2ncnc3c2cnn3-c2cccc(OC)c2)c1 : inhibition is 3.43

The reported inhibition of the molecule COc1cc(C)c(N(C)C(=O)CN(C)C)cc1Nc1nc(Nc2cccc(F)c2C(N)=O)c2cc[nH]c2n1 was 3.08

The recorded inhibition for CS(=O)(=O)CCNCc1ccc(-c2ccc3ncnc(Nc4ccc(OCc5ccccc5)c(Br)c4)c3c2)o1 is -1.75

Noted for O=C1Nc2ccc(I)cc2C1=Cc1cc(Br)c(O)c(Br)c1 : its inhibition reads 6.35

The recorded inhibition for CCc1ccc(Oc2nccc(-c3c(-c4ccc(F)cc4)ncn3C3CCNCC3)n2)cc1 is 6.47

The molecule identified as C[C@@H](Oc1cc(-n2cnc3ccc(OC4CCN(C)CC4)cc32)sc1C(N)=O)c1ccccc1Cl registered its inhibition at 40.8

Documented inhibition of C#Cc1cccc(Nc2ncnc3ccc(OCCCCNCCS(C)(=O)=O)cc23)c1 : 2.93

Documented inhibition of COc1cc(Nc2ncc(-c3ccccc3)o2)cc(OC)c1OC : 14.5

Recorded result, NS(=O)(=O)c1ccc(N/N=C2\C(=O)Nc3ccc(C(=O)NCCCn4ccnc4)cc32)cc1 , inhibition: 21.6

inhibition reported for this molecule NC(=O)c1cc(-c2ccc(F)cc2)cc(-c2ccncc2)c1N : 1.32

Briefly, inhibition measured for COc1cc(Nc2ncc3c(C)nc(-c4cccc(Oc5ccccc5)c4)n3n2)cc(OC)c1OC : 4.06

----------
# tested system: Misshapen-like kinase 1 (Homo sapiens) (UniProt Q8N4C8);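 also: mean inhibition value reported, from GSK PKIS kinase profiling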
# Sequence (Q8N4C8 whole entry, looked up): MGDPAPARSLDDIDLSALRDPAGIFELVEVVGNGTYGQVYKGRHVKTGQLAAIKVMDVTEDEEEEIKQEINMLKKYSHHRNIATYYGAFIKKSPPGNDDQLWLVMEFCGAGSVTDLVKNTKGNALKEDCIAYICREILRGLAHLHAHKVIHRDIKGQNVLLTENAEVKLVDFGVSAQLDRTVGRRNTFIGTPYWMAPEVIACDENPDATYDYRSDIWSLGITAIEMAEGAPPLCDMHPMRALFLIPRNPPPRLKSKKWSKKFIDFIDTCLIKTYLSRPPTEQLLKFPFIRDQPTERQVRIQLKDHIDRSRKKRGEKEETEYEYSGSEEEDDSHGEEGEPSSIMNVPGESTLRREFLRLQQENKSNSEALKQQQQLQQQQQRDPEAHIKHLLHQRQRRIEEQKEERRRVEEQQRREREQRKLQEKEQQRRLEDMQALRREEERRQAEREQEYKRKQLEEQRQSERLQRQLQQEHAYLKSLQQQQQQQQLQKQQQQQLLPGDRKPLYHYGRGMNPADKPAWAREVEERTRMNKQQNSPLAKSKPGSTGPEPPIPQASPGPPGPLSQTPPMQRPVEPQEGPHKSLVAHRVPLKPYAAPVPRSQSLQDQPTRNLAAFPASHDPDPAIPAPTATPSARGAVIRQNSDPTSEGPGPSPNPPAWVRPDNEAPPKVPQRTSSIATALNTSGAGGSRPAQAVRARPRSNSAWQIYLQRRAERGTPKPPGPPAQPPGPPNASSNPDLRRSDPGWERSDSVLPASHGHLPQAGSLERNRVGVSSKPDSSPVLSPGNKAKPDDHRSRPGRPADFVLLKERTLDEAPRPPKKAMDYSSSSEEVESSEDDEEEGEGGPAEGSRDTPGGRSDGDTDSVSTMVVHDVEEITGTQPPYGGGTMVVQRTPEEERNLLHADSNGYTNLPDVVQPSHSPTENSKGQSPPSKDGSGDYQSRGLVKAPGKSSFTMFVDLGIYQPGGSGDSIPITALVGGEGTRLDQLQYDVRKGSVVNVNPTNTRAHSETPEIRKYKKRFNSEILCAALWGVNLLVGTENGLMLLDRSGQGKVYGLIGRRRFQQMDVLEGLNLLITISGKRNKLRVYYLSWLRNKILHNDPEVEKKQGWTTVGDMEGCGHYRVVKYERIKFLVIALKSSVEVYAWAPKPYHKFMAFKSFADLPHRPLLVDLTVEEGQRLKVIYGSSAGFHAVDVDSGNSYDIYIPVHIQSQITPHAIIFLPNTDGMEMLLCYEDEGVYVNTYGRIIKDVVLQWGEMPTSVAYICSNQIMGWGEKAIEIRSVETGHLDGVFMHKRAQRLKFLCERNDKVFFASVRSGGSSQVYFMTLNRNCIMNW
# assay context: at 0.1 µM
Please go through the items and note down their inhibition.
Give just the numeric value; % need not be written.

What the record says about CS(=O)(=O)CCNCc1ccc(-c2ccc3ncnc(Nc4ccc(OCc5ccccc5)c(Br)c4)c3c2)o1 : inhibition is 4.51

Given item CN(C)CCCNc1nccc(-c2c(-c3ccc(F)cc3)nn3cc(C(F)(F)F)ccc23)n1 , the value recorded as its inhibition is 5.22

Lab book: inhibition of COC(=O)Nc1nc2ccc(Sc3ccc(NC(=O)Nc4cc(C(F)(F)F)ccc4F)cc3)cc2[nH]1 noted as 0.07

So for COc1cccc(-n2cnc3c(N/N=C/c4ccncc4)ncnc32)c1 , the logged inhibition turned out to be 2.27

Input COc1cc(Nc2ncc(-c3ccccc3)o2)cc(OC)c1OC . Output inhibition: 0.26

Entry CCc1nccc2c1nc(-c1nonc1N)n2CC , inhibition reported as 3.5

inhibition recorded for this compound, CN1CCN(CCCNc2nc3ccc(Oc4ccc(NC(=O)Nc5cc(C(F)(F)F)ccc5F)cc4)cc3[nH]2)CC1 , is 1.67

For record C#Cc1cccc(Nc2ncnc3ccc(OCCCCNCCS(C)(=O)=O)cc23)c1 the listed inhibition is 9.17

Reported inhibition of NS(=O)(=O)c1ccc(Nc2cc(-c3ccc(O)c(F)c3)n[nH]2)cc1 : 11.6

Reported inhibition of COc1ccc2cc(-c3c(-c4ccncc4)nc(-c4ccc(S(C)(=O)=O)cc4C)n3C)ccc2c1 : 6.31

The reported value for COc1cc(C)c(N(C)C(=O)CN(C)C)cc1Nc1nc(Nc2cccc(F)c2C(N)=O)c2cc[nH]c2n1 in terms of inhibition is 2.85

Quick note, inhibition for Cc1nnc(-c2ccc(C)c(-c3ccc(C(=O)NCc4ccc(Cl)cc4)cc3)c2)o1 landed at 5.42

Entry Fc1ccc(-c2nc3n(c2-c2ccncc2)CCS3)cc1 , inhibition reported as 6.96

Looking up COc1cc2ncn(-c3cc(OCc4ccccc4C(F)(F)F)c(C(C)=O)s3)c2cc1OC , I see its inhibition listed as 5

----------
# tested system: Serine/threonine-protein kinase Nek9 (Homo sapiens) (UniProt Q8TD19);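 also: each value is a mean percent inhibition of NEK9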
# Sequence (Q8TD19 whole entry): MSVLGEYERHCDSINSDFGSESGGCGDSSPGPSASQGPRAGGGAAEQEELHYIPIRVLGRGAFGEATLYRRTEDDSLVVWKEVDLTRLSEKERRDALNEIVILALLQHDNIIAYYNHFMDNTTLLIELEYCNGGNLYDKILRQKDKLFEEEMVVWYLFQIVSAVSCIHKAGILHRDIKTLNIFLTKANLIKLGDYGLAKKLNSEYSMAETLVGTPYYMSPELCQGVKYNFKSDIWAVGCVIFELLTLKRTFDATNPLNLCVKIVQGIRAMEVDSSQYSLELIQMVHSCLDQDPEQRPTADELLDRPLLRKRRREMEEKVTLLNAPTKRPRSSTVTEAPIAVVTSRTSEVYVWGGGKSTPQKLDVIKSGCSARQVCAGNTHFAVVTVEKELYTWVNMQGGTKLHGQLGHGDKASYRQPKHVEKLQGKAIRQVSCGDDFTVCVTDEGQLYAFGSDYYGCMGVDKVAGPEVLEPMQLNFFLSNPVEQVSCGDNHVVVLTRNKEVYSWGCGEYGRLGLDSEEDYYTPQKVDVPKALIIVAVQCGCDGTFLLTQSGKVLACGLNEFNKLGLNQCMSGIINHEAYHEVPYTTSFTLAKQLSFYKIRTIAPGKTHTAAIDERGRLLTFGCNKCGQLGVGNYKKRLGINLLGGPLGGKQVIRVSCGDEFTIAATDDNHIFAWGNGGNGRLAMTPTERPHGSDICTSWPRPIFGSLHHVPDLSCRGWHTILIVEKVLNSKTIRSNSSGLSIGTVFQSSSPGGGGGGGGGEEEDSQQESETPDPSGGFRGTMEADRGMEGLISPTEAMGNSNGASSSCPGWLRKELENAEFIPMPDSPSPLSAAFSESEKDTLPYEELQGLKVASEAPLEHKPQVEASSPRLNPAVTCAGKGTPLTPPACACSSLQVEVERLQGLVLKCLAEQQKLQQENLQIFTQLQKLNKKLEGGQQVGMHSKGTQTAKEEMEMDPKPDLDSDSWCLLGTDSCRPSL
# assay context: at 1 µM
Give inhibition for every item shown.
The reply must contain the numeric value and, after it, the unit.

So for O=C1Nc2ccccc2/C1=C/Nc1ccc(-n2cncn2)cc1 , the logged inhibition turned out to be 12.4%

The recorded inhibition for C[C@@H](Oc1cc(-n2cnc3ccc(OCC4CCN(C)CC4)cc32)sc1C(N)=O)c1ccccc1Cl is 89.7%

Entry COc1cccc(/C=N/Nc2ncnc3c2cnn3-c2cccc(OC)c2)c1 — recorded inhibition = 11.2%

For this molecule ( Cc1nnc(-c2ccc(C)c(-c3ccc(C(=O)NCc4ccc(Cl)cc4)cc3)c2)o1 ), measured inhibition is 11.6%

Record CN(C)c1ccc2c(c1)/C(=C/Nc1ccc(S(N)(=O)=O)cc1)C(=O)N2 . Reported inhibition: 4.93%

Per the record, CCc1cccc(CC)c1/C=C/c1cncc(C(=O)NC)c1 has inhibition of -1.94%

For CN(c1ccc(NC(=O)Nc2c(Cl)cccc2Cl)cc1)c1ccnc(Nc2cccc(CS(C)(=O)=O)c2)n1 the molecule record lists inhibition as -6.03%

Lookup result for CCc1ccc(Oc2nccc(-c3c(-c4ccc(F)cc4)ncn3C3CCNCC3)n2)cc1 ; measured inhibition: -3%

Looking up C[C@@H](Oc1cc(-n2cnc3ccc(OC4CCN(C)CC4)cc32)sc1C(N)=O)c1ccccc1Cl , I found its inhibition recorded as 97.2%

inhibition reading for NCc1ccc(-n2c(-c3nonc3N)nc3cnccc32)cc1 : 6.1%

# inhibition (molecule: N#Cc1ccc(Oc2nccc(-c3c(-c4ccc(F)cc4)ncn3C3CCNCC3)n2)cc1 ) is 9.35%

Recorded inhibition (molecule COc1cccc(-n2cnc3c(N/N=C/c4ccncc4)ncnc32)c1 ): 5.21%

Entry under test: CN(C)CCOc1ccc(-c2cc(-c3ccc4c(c3)CCC4=NO)c(-c3ccncc3)o2)cc1 . Its inhibition was -0.58%

Field inhibition (entry C/C(Nc1ccc(S(N)(=O)=O)cc1)=C1/C(=O)Nc2ccccc21 ) reads 1.67%

Data point: Cc1ccc(C(=O)NC2CCC2)cc1-c1ccc(C(=O)NCC2CC2)cc1 ; inhibition = 5.58%

According to the records, this molecule COc1cc2ncn(-c3cc(OCc4ccccc4C(F)(F)F)c(C(C)=O)s3)c2cc1OC displays inhibition of 5.55%

For this molecule ( COc1cc(C)c(N(C)C(=O)CN(C)C)cc1Nc1nc(Nc2cccc(F)c2C(N)=O)c2cc[nH]c2n1 ), measured inhibition is 3.64%

The molecule listed as O=C1NC(=O)C(c2cccc(Cl)c2)=C1Nc1ccc(Cl)c(C(=O)O)c1 has a reported inhibition of 2.04%

What the record says about NC(=O)Cc1ccccc1Oc1nccc(-c2c(-c3ccc(F)cc3)ncn2C2CCNCC2)n1 : inhibition is 1.22%

The reported value for O=C(Nc1n[nH]c2nc(-c3ccco3)ccc12)C1CC1 in terms of inhibition is -0.33%

Just so you know, measured inhibition for CCS(=O)(=O)c1ccc(OC)c(Nc2ncc(-c3cccc(-c4ccccc4F)c3)o2)c1 came out at -0.99%

Per the records, this molecule ( Fc1ccc(-c2ncn(C3CCNCC3)c2-c2ccnc(Oc3ccc(Oc4ccccc4)cc3)n2)cc1 ) has inhibition equal to 4.8%

molecule CCc1nccc2c1nc(-c1nonc1N)n2CC , inhibition observed: 2.52%
